The origin of these recorded values is the supplement of paper PMC6555819.

test system: PPARg:RXRa 270nM:90nM, anti-RXR (NR concentration 270 nM, RXRa partner concentration 90 nM); test: PBM binding z-score (relative to random genomic background probes); higher = stronger binding; sequences stand for … in GC…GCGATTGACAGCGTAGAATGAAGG
Class key for PBM binding z-score values: c1: < 2; c2: ≥ 2 and < 5; c3: ≥ 5

*Q* Assign a category based on measured PBM binding z-score for GCTTTTAGTTGAAAGGGCAACCGAATGATTCTCG and give only the class name.
*A* c2

*Q* Assign a category based on measured PBM binding z-score for TCGAGTAGGTTACCAATGGGGCATTGAGCTTTCT and give only the class name.
*A* c1

*Q* Assign a category based on measured PBM binding z-score for AGAATGAGGTTATTAGGATCAGGGAATTGCGGTC and give only the class name.
*A* c2

*Q* Assign a category based on measured PBM binding z-score for CTCGAAAGGTCGTGCTCAGGTGAGTCTACCAAAC and give only the class name.
*A* c2

*Q* Assign a category based on measured PBM binding z-score for TAGCCTAGGTCATTCTGGGGCCAGTATAGAAAGC and give only the class name.
*A* c2

*Q* Assign a category based on measured PBM binding z-score for CCTACTAGGCCAAAGGTCATTGATTCCAATGCTC and give only the class name.
*A* c3

*Q* Assign a category based on measured PBM binding z-score for CAAACTAGGTCACGAAGGGTCAAAGTCGAATGAC and give only the class name.
*A* c3

*Q* Assign a category based on measured PBM binding z-score for CCTACTGGGGCAAGGTTACCATAACGCACAGCCA and give only the class name.
*A* c2

*Q* Assign a category based on measured PBM binding z-score for AGTCAACGTTCACTAGGTAACGTAAGATTCAGCT and give only the class name.
*A* c1

*Q* Assign a category based on measured PBM binding z-score for CCGACTGGGGCACAAGGTTACCATAAGCCAGCCC and give only the class name.
*A* c2

Next:
*Q* Assign a category based on measured PBM binding z-score for TTACCAAGGTGAAAGGTCGTTGATGCACGCCTTG and give only the class name.
*A* c3

*Q* Assign a category based on measured PBM binding z-score for TCTAGCAGGCCAGAGGGTCACTAAAGAGGTACGG and give only the class name.
*A* c2
